Target: Protein cereblon/Eukaryotic peptide chain release factor GTP-binding subunit ERF3A (Homo sapiens, UniProt Q96SW2+P15170)
Sequence (P15170 whole entry, looked up): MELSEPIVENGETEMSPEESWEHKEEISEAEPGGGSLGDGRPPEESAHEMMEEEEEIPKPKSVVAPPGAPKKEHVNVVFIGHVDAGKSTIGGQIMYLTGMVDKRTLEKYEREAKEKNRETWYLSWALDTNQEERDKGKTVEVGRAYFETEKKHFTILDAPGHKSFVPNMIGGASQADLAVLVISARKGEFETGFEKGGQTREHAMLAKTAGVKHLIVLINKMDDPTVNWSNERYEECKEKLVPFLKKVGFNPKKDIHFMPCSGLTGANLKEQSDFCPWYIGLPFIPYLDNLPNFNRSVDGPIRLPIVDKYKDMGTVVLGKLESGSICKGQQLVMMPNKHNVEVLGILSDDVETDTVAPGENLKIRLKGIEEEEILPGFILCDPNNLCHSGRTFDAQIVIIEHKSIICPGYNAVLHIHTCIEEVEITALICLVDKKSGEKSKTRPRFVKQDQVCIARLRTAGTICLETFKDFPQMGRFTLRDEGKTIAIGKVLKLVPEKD
Sequence (Q96SW2 whole entry, looked up): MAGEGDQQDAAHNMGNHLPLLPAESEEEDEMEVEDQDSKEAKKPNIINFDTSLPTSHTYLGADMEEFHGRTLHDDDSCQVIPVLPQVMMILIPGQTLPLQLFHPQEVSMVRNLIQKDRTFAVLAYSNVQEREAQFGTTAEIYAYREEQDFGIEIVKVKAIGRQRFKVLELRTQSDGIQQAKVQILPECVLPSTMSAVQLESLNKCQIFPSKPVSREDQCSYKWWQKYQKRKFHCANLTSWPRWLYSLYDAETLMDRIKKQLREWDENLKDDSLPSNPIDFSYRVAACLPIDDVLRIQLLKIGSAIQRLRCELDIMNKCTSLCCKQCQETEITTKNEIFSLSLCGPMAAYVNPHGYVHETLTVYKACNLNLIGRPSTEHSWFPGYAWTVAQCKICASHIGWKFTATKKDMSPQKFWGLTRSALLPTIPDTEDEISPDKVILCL
Experiment: Molecular glue activity at CRBN/GSPT1 in human 22Rv1 cells assessed as induction of GSPT1 degradation at 1 uM incubated for 24 hrs by Western blot analysis relative to control
Type: cell-based
Label MET when Activity is at or above 40%; anything below gets NOT MET.

1. CC(C)(c1ccc(OCC2CCN(C(=O)CCCCCCOc3ccc4c(c3)C(=O)N(C3CCC(=O)NC3=O)C4=O)CC2)cc1)c1ccc(OC[C@H](O)CCl)cc1 (some centres not stated)    MET
2. CC(C)(c1ccc(OCC2CCN(C(=O)CCCCCNc3cccc4c3C(=O)N(C3CCC(=O)NC3=O)C4=O)CC2)cc1)c1ccc(OC[C@H](O)CCl)cc1 (some centres not stated)    MET
3. CC(C)(c1ccc(OCC2CCN(C3CN(C(=O)CNc4ccc5c(c4)C(=O)N(C4CCC(=O)NC4=O)C5=O)C3)CC2)cc1)c1ccc(OC[C@H](O)CCl)cc1 (some centres not stated)    NOT MET
4. CC(C)(c1ccc(OCC2CCN(C3CN(C(=O)CCCCNc4ccc5c(c4)C(=O)N(C4CCC(=O)NC4=O)C5=O)C3)CC2)cc1)c1ccc(OC[C@H](O)CCl)cc1 (some centres not stated)    NOT MET
5. CC(C)(c1ccc(OCC2CCN(C(=O)CCCC#Cc3ccc4c(c3)C(=O)N(C3CCC(=O)NC3=O)C4=O)CC2)cc1)c1ccc(OC[C@H](O)CCl)cc1 (some centres not stated)    NOT MET
6. CC(C)(c1ccc(OCC2CCN(C(=O)CCCCCOc3ccc4c(c3)C(=O)N(C3CCC(=O)NC3=O)C4=O)CC2)cc1)c1ccc(OC[C@H](O)CCl)cc1 (some centres not stated)    MET
7. CC(C)(c1ccc(OCC2CCN(C(=O)CCCCCCNc3cccc4c3C(=O)N(C3CCC(=O)NC3=O)C4=O)CC2)cc1)c1ccc(OC[C@H](O)CCl)cc1 (some centres not stated)    NOT MET
8. CC(C)(c1ccc(OCC2CCN(C3CN(C(=O)CCNc4ccc5c(c4)C(=O)N(C4CCC(=O)NC4=O)C5=O)C3)CC2)cc1)c1ccc(OC[C@H](O)CCl)cc1 (some centres not stated)    NOT MET
9. CC(C)(c1ccc(OCC2CCN(C(=O)CCCCCNc3ccc4c(c3)C(=O)N(C3CCC(=O)NC3=O)C4=O)CC2)cc1)c1ccc(OC[C@H](O)CCl)cc1 (some centres not stated)    MET
10. CC(C)(c1ccc(OCC2CCN(C3CN(C(=O)CCCNc4ccc5c(c4)C(=O)N(C4CCC(=O)NC4=O)C5=O)C3)CC2)cc1)c1ccc(OC[C@H](O)CCl)cc1 (some centres not stated)    MET
11. CC(C)(c1ccc(OCC2CCN(C(=O)CCCCOc3ccc4c(c3)C(=O)N(C3CCC(=O)NC3=O)C4=O)CC2)cc1)c1ccc(OC[C@H](O)CCl)cc1 (some centres not stated)    NOT MET
12. CC(C)(c1ccc(OCC2CCN(C(=O)CCCCCCCNc3cccc4c3C(=O)N(C3CCC(=O)NC3=O)C4=O)CC2)cc1)c1ccc(OC[C@H](O)CCl)cc1 (some centres not stated)    NOT MET
13. CC(C)(c1ccc(OCC2CCN(C(=O)CCCCCCNc3ccc4c(c3)C(=O)N(C3CCC(=O)NC3=O)C4=O)CC2)cc1)c1ccc(OC[C@H](O)CCl)cc1 (some centres not stated)    MET
14. CC(C)(c1ccc(OCC2CCN(C(=O)CCCCNc3ccc4c(c3)C(=O)N(C3CCC(=O)NC3=O)C4=O)CC2)cc1)c1ccc(OC[C@H](O)CCl)cc1 (some centres not stated)    MET
15. CC(C)(c1ccc(OCC2CCN(C(=O)CCCCC#Cc3ccc4c(c3)C(=O)N(C3CCC(=O)NC3=O)C4=O)CC2)cc1)c1ccc(OC[C@H](O)CCl)cc1 (some centres not stated)    NOT MET
16. CC(C)(c1ccc(OCC2CCN(C(=O)CCCCCCCNc3ccc4c(c3)C(=O)N(C3CCC(=O)NC3=O)C4=O)CC2)cc1)c1ccc(OC[C@H](O)CCl)cc1 (some centres not stated)    NOT MET
